Molecular target: T1, IRF4 DBD D117A (Homo sapiens, UniProt Q15306 20-132, D117A)
T1 sequence: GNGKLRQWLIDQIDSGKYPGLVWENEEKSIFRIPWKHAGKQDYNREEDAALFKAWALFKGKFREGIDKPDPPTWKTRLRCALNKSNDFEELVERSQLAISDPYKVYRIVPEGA
Experiment: SPR two-state kinetic; FP: PBS + 0.05% Tween20, 5 nM DNA, 1 h, room temperature; SPR: Biacore S200, SA chip, protein 0.1-4500 nM, running buffer not given in material; errors are SD
Details: protein: recombinant; tags: N-terminal His8-linker-His8-TEV, cleaved; label: 3' biotin; hairpin, TTTT loop
measured_quantity: Kd

Data request: Fill in: Kd of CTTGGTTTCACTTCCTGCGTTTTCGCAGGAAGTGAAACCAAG (structured_DNA) [IRE hairpin (biotin)] is ___
Data returned: 293 nM
